test system: voltage-dependent Ca2+ channels (isolated rat ileum); experiment: Calcium antagonism: relaxation of K+; settings: K+ (80 mM)-induced contractions of rat ileum; mean ± SD, three independent experiments
reported-endpoint: IC50
Please format your answer as a value with the unit trailing.

| molecule | IC50 |
| --- | --- |
| CC1=C(C(=O)O)C(c2ccccc2Cl)NC(=S)N1 (centres unmarked) | 25.25 ± 1.39 µg/mL |
| CC1=C(C(=O)Nc2ccc(C)cc2)C(c2ccccc2C#N)NC(=S)N1 (centres unmarked) | 22.81 ± 2.46 µg/mL |
| CC1=C(C(=O)Nc2ccccc2)C(c2ccccc2Cl)NC(=S)N1 (centres unmarked) | 20.23 ± 1.79 µg/mL |
| CC1=C(C(=O)Cl)C(c2ccccc2C#N)NC(=S)N1 (centres unmarked) | 26.84 ± 1.51 µg/mL |
| CC1=C(C(=O)Cl)C(c2ccccc2Cl)NC(=S)N1 (centres unmarked) | 30.78 ± 2.52 µg/mL |
| CC1=C(C(=O)Cl)C(c2ccccc2Br)NC(=S)N1 (centres unmarked) | 29.73 ± 2.44 µg/mL |

For CC1=C(C(=O)Nc2ccc(F)cc2)C(c2ccccc2C#N)NC(=S)N1 (centres unmarked) on voltage-dependent Ca2+ channels (isolated rat ileum), measured IC50 was 22.85 ± 1.11 µg/mL
